test: Pharmacokinetic study of I-11 in female BALB/c mice (Example 4); format: in vivo, Balb/c mouse; settings: female, BALB/c, mouse, plasma, po, 50 mg/kg, PO 50 mg/kg, 2 hr, read-out: Plasma concentration Individual
observed.property: concentration at 2 hr (ng/mL)
Write it as a number; the unit ng/mL goes unstated.

For the molecule CC(C)Cc1sc(Nc2ncc(-c3cccs3)cc2C(=O)O)nc1C(C)(C)C [Compound I-11] , report concentration at 2 hr. 7260

###

assay: Pharmacokinetic studies of certain compounds in female Balb/c mice (Example 5); assay type: in vivo; conditions: female, Balb/c, mouse, plasma, iv, 1.48 mg/kg, I-29 IV 1.48 mg/kg, 2 hr, read-out: Plasma concentration Mean
observed.property: concentration at 2 hr (ng/mL)
Write it as a number; the unit ng/mL goes unstated.

For the compound CC(C)Cc1sc(Nc2ncc(-c3cccs3)cc2C(=O)O)nc1C1CCC(F)(F)CC1 , report concentration at 2 hr. 5.25
